Data origin, for the record: ChEMBL document CHEMBL4138104

- Test system: NCI-H226
- Method: Growth inhibition of human NCI-H226 cells incubated for 48 hrs by sulforhodamine B assay
- Type: functional
- Experimental setup: NCI-H226, 48 h

# Molecule, GI50 (µM)
records = [
    ("C=C1C(=O)O[C@@H]2[C@H]3O[C@]3(C)CC/C=C(/COC(=O)c3cc4ccccc4s3)CC[C@@H]12", 2),
    ("C=C1C(=O)O[C@@H]2[C@H]3O[C@]3(C)CC/C=C(/COC(=O)/C=C/c3c[nH]c4ccccc34)CC[C@@H]12", 0.23),
    ("CN(C)CC1C(=O)O[C@@H]2[C@H]3O[C@]3(C)CC/C=C(/COC(=O)c3cc4ccccc4[nH]3)CC[C@@H]12.O=C(O)/C=C/C(=O)O (stereo partly drawn)", 1.98),
    ("C=C1C(=O)O[C@@H]2[C@H]3O[C@]3(C)CC/C=C(/COC(=O)c3cc4cc(Cl)ccc4[nH]3)CC[C@@H]12", 1.8),
    ("C=C1C(=O)O[C@@H]2[C@H]3O[C@]3(C)CC/C=C(/COC(=O)c3c[nH]c4ccccc34)CC[C@@H]12", 0.44),
    ("C=C1C(=O)O[C@@H]2[C@H]3O[C@]3(C)CC/C=C(/COC(=O)CCCc3c[nH]c4ccccc34)CC[C@@H]12", 2.04),
    ("C=C1C(=O)O[C@@H]2[C@H]3O[C@]3(C)CC/C=C(/COC(=O)c3cn(C)c4ccccc34)CC[C@@H]12", 1.48),
    ("C=C1C(=O)O[C@@H]2[C@H]3O[C@]3(C)CC/C=C(/COC(=O)c3cc4cc(F)ccc4[nH]3)CC[C@@H]12", 1.76),
]

* * *

- System: MDA-MB-231
- Method: Growth inhibition of human MDA-MB-231/ATCC cells incubated for 48 hrs by sulforhodamine B assay
- Assay type: functional
- Experimental setup: MDA-MB-231, 48 h
Test readout: GI50 (nM)

# Compound, Recorded value
records = [
    ("C=C1C(=O)O[C@@H]2[C@H]3O[C@]3(C)CC/C=C(/COC(=O)c3c[nH]c4ccccc34)CC[C@@H]12", 190),
    ("CN(C)CC1C(=O)O[C@@H]2[C@H]3O[C@]3(C)CC/C=C(/COC(=O)c3cc4ccccc4[nH]3)CC[C@@H]12.O=C(O)/C=C/C(=O)O (some centres undefined)", 1740),
    ("C=C1C(=O)O[C@@H]2[C@H]3O[C@]3(C)CC/C=C(/COC(=O)c3cc4cc(F)ccc4[nH]3)CC[C@@H]12", 1590),
    ("C=C1C(=O)O[C@@H]2[C@H]3O[C@]3(C)CC/C=C(/COC(=O)c3cn(C)c4ccccc34)CC[C@@H]12", 1050),
]

* * *

- Tested on: Malme-3M
- Method: Growth inhibition of human MALME-3M cells incubated for 48 hrs by sulforhodamine B assay
- Format: functional
Parameter: GI50. Scope: all listed entries.
Test readout: GI50 (nM)

# Structure smiles, Test readout, Recorded value
data = [
    ("C=C1C(=O)O[C@@H]2[C@H]3O[C@]3(C)CC/C=C(/COC(=O)c3cn(C)c4ccccc34)CC[C@@H]12", "GI50", 1620),
    ("C=C1C(=O)O[C@@H]2[C@H]3O[C@]3(C)CC/C=C(/COC(=O)c3cc4ccccc4[nH]3)CC[C@@H]12", "GI50", 1560),
    ("C=C1C(=O)O[C@@H]2[C@H]3O[C@]3(C)CC/C=C(/COC(=O)c3cc4ccccc4s3)CC[C@@H]12", "GI50", 1820),
    ("C=C1C(=O)O[C@@H]2[C@H]3O[C@]3(C)CC/C=C(/COC(=O)/C=C/c3c[nH]c4ccccc34)CC[C@@H]12", "GI50", 280),
    ("C=C1C(=O)O[C@@H]2[C@H]3O[C@]3(C)CC/C=C(/COC(=O)c3cc4cc(Cl)ccc4[nH]3)CC[C@@H]12", "GI50", 1630),
]

* * *

Parameter GI50: see the listing below.
- Tested on: OVCAR-4
- Method: Growth inhibition of human OVCAR4 cells incubated for 48 hrs by sulforhodamine B assay
- Assay type: functional
- Experimental setup: OVCAR-4, 48 h
Test readout: GI50 (nM)

# Structure smiles, Test readout, Recorded value
records = [
    ("C=C1C(=O)O[C@@H]2[C@H]3O[C@]3(C)CC/C=C(/COC(=O)c3cc4cc(F)ccc4[nH]3)CC[C@@H]12", "GI50", 1670),
    ("C=C1C(=O)O[C@@H]2[C@H]3O[C@]3(C)CC/C=C(/COC(=O)c3cc4cc(Cl)ccc4[nH]3)CC[C@@H]12", "GI50", 1330),
    ("C=C1C(=O)O[C@@H]2[C@H]3O[C@]3(C)CC/C=C(/COC(=O)c3cn(C)c4ccccc34)CC[C@@H]12", "GI50", 1140),
    ("C=C1C(=O)O[C@@H]2[C@H]3O[C@]3(C)CC/C=C(/COC(=O)c3c[nH]c4ccccc34)CC[C@@H]12", "GI50", 250),
    ("C=C1C(=O)O[C@@H]2[C@H]3O[C@]3(C)CC/C=C(/COC(=O)/C=C/c3c[nH]c4ccccc34)CC[C@@H]12", "GI50", 200),
    ("C=C1C(=O)O[C@@H]2[C@H]3O[C@]3(C)CC/C=C(/COC(=O)c3cc4ccccc4s3)CC[C@@H]12", "GI50", 2080),
    ("C=C1C(=O)O[C@@H]2[C@H]3O[C@]3(C)CC/C=C(/COC(=O)c3cc4cc(OC)ccc4[nH]3)CC[C@@H]12", "GI50", 1630),
]

* * *

- Tested on: NCI-H226
- Method: Growth inhibition of human NCI-H226 cells incubated for 48 hrs by sulforhodamine B assay
- Format: functional
- Experimental setup: NCI-H226, 48 h

# Compound, GI50 / nM
measured = [
    ("C=C1C(=O)O[C@@H]2[C@H]3O[C@]3(C)CC/C=C(/COC(=O)c3cc4ccccc4o3)CC[C@@H]12", 1740),
    ("C=C1C(=O)O[C@@H]2[C@H]3O[C@]3(C)CC/C=C(/COC(=O)c3cc4ccccc4[nH]3)CC[C@@H]12", 1470),
    ("C=C1C(=O)O[C@@H]2[C@H]3O[C@]3(C)CC/C=C(/COC(=O)c3cc4cc(OC)ccc4[nH]3)CC[C@@H]12", 1570),
    ("C=C1C(=O)O[C@@H]2C3O[C@]3(C)CC/C=C(\\C)CC[C@@H]12 (some centres undefined)", 20500),
]

* * *

# pEC50 annotations
- Method: Induction of apoptosis in AML02 cells isolated from acute myelogenous leukemia patient after 24 hrs by annexin V/7-AAD/propidium iodide staining-based flow cytometric method
- Type: functional, cell-based
- Experimental setup: Homo sapiens
pEC50: −log10 of the molar value.
Test readout: pEC50

# Compound, Recorded value
data = [
    ("C=C1C(=O)O[C@@H]2C3O[C@]3(C)CC/C=C(\\C)CC[C@@H]12 (some centres undefined)", 5.20),
    ("C=C1C(=O)O[C@@H]2[C@H]3O[C@]3(C)CC/C=C(/COC(=O)/C=C/c3c[nH]c4ccccc34)CC[C@@H]12", 6.04),
    ("C=C1C(=O)O[C@@H]2[C@H]3O[C@]3(C)CC/C=C(/COC(=O)c3cc4cc(OC)ccc4[nH]3)CC[C@@H]12", 5.48),
    ("C=C1C(=O)O[C@@H]2[C@H]3O[C@]3(C)CC/C=C(/COC(=O)c3cc4ccccc4[nH]3)CC[C@@H]12", 5.57),
]

* * *

- Test system: PC-3
- Method: Growth inhibition of human PC3 cells incubated for 48 hrs by sulforhodamine B assay
- Format: functional
- Experimental setup: PC-3, 48 h
Property: GI50; scope: individual molecules
Test readout: GI50 (nM)

# Molecule, Readout units, Recorded value
records = [
    ("C=C1C(=O)O[C@@H]2[C@H]3O[C@]3(C)CC/C=C(/COC(=O)c3cc4cc(OC)ccc4[nH]3)CC[C@@H]12", "nM", 1830),
    ("CN(C)CC1C(=O)O[C@@H]2[C@H]3O[C@]3(C)CC/C=C(/COC(=O)c3cc4ccccc4[nH]3)CC[C@@H]12.O=C(O)/C=C/C(=O)O (some centres undefined)", "nM", 2370),
    ("C=C1C(=O)O[C@@H]2[C@H]3O[C@]3(C)CC/C=C(/COC(=O)/C=C/c3c[nH]c4ccccc34)CC[C@@H]12", "nM", 320),
    ("C=C1C(=O)O[C@@H]2[C@H]3O[C@]3(C)CC/C=C(/COC(=O)c3cc4ccccc4[nH]3)CC[C@@H]12", "nM", 1420),
]

* * *

- Test system: RPMI-8226
- Method: Growth inhibition of human RPMI8226 cells incubated for 48 hrs by sulforhodamine B assay
- Assay type: functional
- Experimental setup: RPMI-8226, 48 h
Some compounds, each annotated with its measured log10 GI50.
Test readout: log10 GI50 (log10 of the value in nM)

# Compound, Test readout, Recorded value
data = [
    ("C=C1C(=O)O[C@@H]2[C@H]3O[C@]3(C)CC/C=C(/COC(=O)c3cc4cc(F)ccc4[nH]3)CC[C@@H]12", "log10 GI50", 3.30),
    ("C=C1C(=O)O[C@@H]2[C@H]3O[C@]3(C)CC/C=C(/COC(=O)c3cc4ccccc4[nH]3)CC[C@@H]12", "log10 GI50", 2.41),
    ("C=C1C(=O)O[C@@H]2C3O[C@]3(C)CC/C=C(\\C)CC[C@@H]12 (stereo not given in full)", "log10 GI50", 3.91),
    ("C=C1C(=O)O[C@@H]2[C@H]3O[C@]3(C)CC/C=C(/COC(=O)c3cc4ccccc4s3)CC[C@@H]12", "log10 GI50", 2.75),
    ("C=C1C(=O)O[C@@H]2[C@H]3O[C@]3(C)CC/C=C(/COC(=O)/C=C/c3c[nH]c4ccccc34)CC[C@@H]12", "log10 GI50", 1.48),
]
